Test system: Trypanosoma cruzi
Assay: Antitrypanosomal activity against Trypanosoma cruzi Arequipa trypomastigotes infected in BALB/c mouse assessed as reduction in splenomegaly by measuring weight percent of spleens […] at 50 mg/kg, po dosed on alternating days (7 to 15 days post infection) by PCR analysis (reference value: 1.603%)
Format: functional
Set-up: scale not given: the % may be the effect or the level left
Measurement type: Activity (%)

1. O=C(CCN1CCN(c2ccc([N+](=O)[O-])cc2C(F)(F)F)CC1)c1csc2ccccc12 :: 1.171
2. O=C(CCN1CCN(c2ccc([N+](=O)[O-])cc2)CC1)c1csc2ccccc12 :: 1.174
3. O=C(CCN1CCN(c2ccc(C(F)(F)F)cc2)CC1)c1csc2ccc(F)cc12 :: 1.621
4. O=C(CCN1CCN(c2ccc(F)cc2)CC1)c1csc2ccc(F)cc12 :: 1.061

----------
System: Trypanosoma cruzi
Assay: Antitrypanosomal activity against Trypanosoma cruzi Arequipa trypomastigotes infected in BALB/c mouse assessed as reduction in parasitemia measured during acute phase (days 0 to 40 post infection) at 50 to 100 mg/kg, po dosed on alternating days (7 to 15 days post infection)
Format: functional, organism-based
Conditions: dose 50-100 mg/kg
The source made the active and inactive calls. The calls are words filed in the database; no cut-off is given here.
Measurement type: Activity

1) O=C(CCN1CCN(c2ccc([N+](=O)[O-])cc2)CC1)c1csc2ccccc12 :: Active
2) O=C(CCN1CCN(c2ccc(F)cc2)CC1)c1csc2ccc(F)cc12 :: Active
3) O=C(CCN1CCN(c2ccc([N+](=O)[O-])cc2C(F)(F)F)CC1)c1csc2ccccc12 :: Active
4) O=C(Cn1ccnc1[N+](=O)[O-])NCc1ccccc1 :: Active
5) O=C(CCN1CCN(c2ccc(C(F)(F)F)cc2)CC1)c1csc2ccc(F)cc12 :: Active

----------
Consider the following molecules and their measured pIC50 readings.
Test system: Trypanosoma cruzi
Assay: Antitrypanosomal activity against Trypanosoma cruzi Tulahuen trypomastigote froms infected in mouse blood incubated for 24 hrs by Neubauer chamber based assay
Type: functional, organism-based
pIC50: −log10 of the molar value.
Measurement type: pIC50

1. O=C(CCN1CCN(c2ccc(C(F)(F)F)cc2)CC1)c1csc2ccc(F)cc12 :: 4.34
2. O=C(CCN1CCN(Cc2ccccc2)CC1)c1csc2ccccc12 :: 4.49
3. O=C(CCN1CCN(c2ccc([N+](=O)[O-])cc2)CC1)c1ccc2c(c1)OCO2 :: 7.10
4. O=C(CCN1CCN(c2ccc([N+](=O)[O-])cc2)CC1)c1ccc2ccccc2c1 :: 5.16
5. O=C(CCN1CCN(c2ccc(Cl)cc2)CC1)c1csc2ccccc12 :: 4.89
6. O=C(CCN1CCN(c2ccc(F)cc2)CC1)c1ccc2c(c1)OCO2 :: 4.25
7. O=C(CCN1CCN(c2ccc([N+](=O)[O-])cc2)CC1)c1csc2ccccc12 :: 6.30
8. O=C(CCN1CCN(c2ccc(F)cc2)CC1)c1csc2ccc(F)cc12 :: 5.72
9. O=C(CCN1CCN(c2ccc(F)cc2)CC1)c1ccc2ccccc2c1 :: 4.59
10. O=C(CCN1CCN(c2ccc(Cl)cc2)CC1)c1ccsc1 :: 4.65
11. O=C(CCN1CCN(Cc2cccc(F)c2)CC1)c1csc2ccccc12 :: 4.56
12. O=C(CCN1CCN(c2ccc(Cl)cc2)CC1)c1ccc2c(c1)OCO2 :: 4.53
13. O=C(Cn1ccnc1[N+](=O)[O-])NCc1ccccc1 :: 4.89
14. O=C(CCN1CCN(c2ccc(C(F)(F)F)cc2)CC1)c1ccc2ccccc2c1 :: 5.18
15. O=C(CCN1CCN(c2ccc([N+](=O)[O-])cc2)CC1)c1csc2ccc(F)cc12 :: 4.28
16. O=C(CCN1CCN(c2ccc(Cl)cc2)CC1)c1csc2ccc(F)cc12 :: 4.66
17. O=C(CCN1CCN(c2ccc(C(F)(F)F)cc2)CC1)c1csc2ccccc12 :: 5.18
18. O=C(CCN1CCN(c2ccc([N+](=O)[O-])cc2C(F)(F)F)CC1)c1csc2ccccc12 :: 5.60
19. COc1cc(Cl)ccc1N1CCN(CCC(=O)c2cc(C)sc2C)CC1 :: 5.64
20. O=C(CCN1CCN(c2ccc(C(F)(F)F)cc2)CC1)c1ccc2c(c1)OCO2 :: 4.63
21. O=C(CCN1CCN(c2cccc(C(F)(F)F)c2)CC1)c1ccsc1 :: 4.65
